- System: MCF-7 human breast cancer cells;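 also: IC50 values, including those behind the selectivity ratio, derive from formazan absorbance at 570 nm, tested in triplicate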
- assay: cells
- Format: cell-based
- stated.conditions: MTT assay, MCF-7; read-out: Cytotoxicity, IC50, MCF-7
pIC50: −log10 of the molar value.

compound	pIC50
C=C(C)CC[C@@H](O)[C@]1(C)OC(=O)C23CC=C4[C@@H](CC[C@H]5C(C)(C)[C@@H](O[C@@H]6OC[C@@H](O[C@@H]7O[C@H](CO)[C@@H](O)[C@H](O[C@@H]8O[C@H](CO)[C@@H](O)[C@H](OC)[C@H]8O)[C@H]7O)[C@H](O)[C@H]6O[C@@H]6O[C@H](C)[C@@H](O[C@@H]7OC[C@@H](O)[C@H](O[C@@H]8O[C@H](COS(=O)(=O)[O-])[C@@H](O)[C@H](OC)[C@H]8O)[C@H]7O)[C@H](O)[C@H]6O)CC[C@]45C)[C@]2(C)C[C@H](OC(C)=O)[C@@H]31.[Na+] (stereo partly shown) [Cladoloside K2 (32), cladoloside K2]	< 4.70

* * *

- System: T-47D human breast cancer cells
- assay: cells
- Type: cell-based
experimental.readout: IC50 (µM)

compound	experimental.readout	result
CO[C@@H]1[C@@H](O)[C@H](O[C@@H]2[C@@H](O)[C@H](O[C@@H]3CO[C@@H](O[C@H]4CC[C@]5(C)C6=CCC78C(=O)O[C@@](C)([C@@H](CCC(C)C)OC(C)=O)[C@H]7[C@@H](OC(C)=O)C[C@@]8(C)[C@@H]6CC[C@H]5C4(C)C)[C@H](O[C@@H]4O[C@H](C)[C@@H](O[C@@H]5OC[C@@H](O)[C@H](O[C@@H]6O[C@H](CO)[C@@H](O)[C@H](OS(=O)(=O)O)[C@H]6O)[C@H]5O)[C@H](O)[C@H]4O)[C@H]3O)O[C@H](CO)[C@H]2O)O[C@H](CO)[C@H]1O (stereo partly shown) [Cladoloside T1 (4)]	IC50	7.41

* * *

- System: MDA-MB-231 triple-negative breast cancer cells
- assay: cells
- Assay type: cell-based, human
- stated.conditions: ratio of IC50 for healthy (MCF-10A) and MDA-MB-231 cells

compound	Selectivity Index (SI), MDA-MB-231
C=C(C)CC[C@@H](OC(C)=O)[C@]1(C)OC(=O)C23CC=C4[C@@H](CC[C@H]5C(C)(C)[C@@H](O[C@@H]6OC[C@@H](O[C@@H]7OC[C@@H](O)[C@H](O[C@@H]8O[C@H](CO)[C@@H](O)[C@H](O)[C@H]8O)[C@H]7O)[C@H](O)[C@H]6O[C@@H]6O[C@H](C)[C@@H](O[C@@H]7OC[C@@H](O)[C@H](O[C@@H]8O[C@H](CO)[C@@H](O)[C@H](OC)[C@H]8O)[C@H]7O)[C@H](O)[C@H]6O)CC[C@]45C)[C@]2(C)C[C@H](OC(C)=O)[C@@H]31 (stereo partly shown) [Cladoloside D (18), Cladoloside D]	>6.7
C=C(C)CCC[C@]1(C)OC(=O)C23CC=C4[C@@H](CC[C@H]5C(C)(C)[C@@H](O[C@@H]6OC[C@@H](O[C@@H]7O[C@H](CO)[C@@H](O)[C@H](O[C@@H]8O[C@H](COS(=O)(=O)[O-])[C@@H](O)[C@H](OC)[C@H]8O)[C@H]7O)[C@H](O)[C@H]6O[C@@H]6O[C@H](C)[C@@H](O[C@@H]7OC[C@@H](O)[C@H](O)[C@H]7O)[C@H](O)[C@H]6O)CC[C@]45C)[C@]2(C)CC(=O)[C@@H]31.[Na+] (stereo partly shown) [Cladoloside J1 (30), Cladoloside J1]	>3.24
C=C(C)CC[C@@H](OC(C)=O)[C@]1(C)OC(=O)C23CC=C4[C@@H](CC[C@H]5C(C)(C)[C@@H](O[C@@H]6OC[C@@H](O[C@@H]7OC[C@@H](O)[C@H](O[C@@H]8O[C@H](CO)[C@@H](O)[C@H](OC)[C@H]8O)[C@H]7O)[C@H](O)[C@H]6O[C@@H]6O[C@H](C)[C@@H](O[C@@H]7OC[C@@H](O)[C@H](O[C@@H]8O[C@H](CO)[C@@H](O)[C@H](OC)[C@H]8O)[C@H]7O)[C@H](O)[C@H]6O)CC[C@]45C)[C@]2(C)C[C@H](OC(C)=O)[C@@H]31 (stereo partly shown) [Cladoloside G (25), cladoloside G]	>5.06
C=C(C)CC[C@@H](OC(C)=O)[C@]1(C)OC(=O)C23CC=C4[C@@H](CC[C@H]5C(C)(C)[C@@H](O[C@@H]6OC[C@@H](O[C@@H]7O[C@H](CO)[C@@H](O)[C@H](O)[C@H]7O)[C@H](O)[C@H]6O[C@@H]6O[C@H](C)[C@@H](O[C@@H]7OC[C@@H](O)[C@H](O[C@@H]8O[C@H](CO)[C@@H](O)[C@H](OC)[C@H]8O)[C@H]7O)[C@H](O)[C@H]6O)CC[C@]45C)[C@]2(C)C[C@H](OC(C)=O)[C@@H]31 (stereo partly shown) [Cladoloside B2 (12), cladoloside B2]	3.12

* * *

- Test system: T-47D human breast cancer cells;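 also: cell viability read as absorbance of formazan dye at 570 nm, each experiment run in triplicate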
- assay: cells
- Format: cell-based
- stated.conditions: MTT assay, T-47D; read-out: Cytotoxicity, IC50, T-47D

molecule	unit.of.measurement	relation.operator	IC50
CO[C@@H]1[C@@H](O)[C@H](O[C@@H]2[C@@H](O)[C@H](O[C@H]3[C@H](O)[C@@H](O)[C@H](O[C@H]4[C@H](O[C@H]5CC[C@]6(C)C7=CCC89C(=O)O[C@@](C)([C@@H](CCC(C)C)OC(C)=O)[C@H]8[C@@H](OC(C)=O)C[C@@]9(C)[C@@H]7CC[C@H]6C5(C)C)OC[C@@H](O[C@@H]5O[C@H](CO)[C@@H](O)[C@H](O)[C@H]5O)[C@@H]4O)O[C@@H]3C)OC[C@H]2O)O[C@H](COS(=O)(=O)[O-])[C@H]1O.[Na+] (some centres unmarked) [Cladoloside I1 (28), cladoloside I1]	µM	=	9.91
CO[C@@H]1[C@@H](O)[C@H](O[C@@H]2[C@@H](O)[C@H](O[C@H]3[C@H](O)[C@@H](O)[C@H](O[C@H]4[C@H](O[C@H]5CC[C@]6(C)C7=CCC89C(=O)O[C@@](C)([C@@H](CCC(C)C)OC(C)=O)[C@H]8[C@@H](OC(C)=O)C[C@@]9(C)[C@@H]7CC[C@H]6C5(C)C)OC[C@@H](O[C@@H]5O[C@H](CO)[C@@H](O)[C@H](O)[C@H]5O)[C@@H]4O)O[C@@H]3C)OC[C@H]2O)O[C@H](CO)[C@H]1O (some centres unmarked) [Cladoloside B1 (11), cladoloside B1]	µM	=	13
CO[C@@H]1[C@@H](O)[C@H](O[C@@H]2[C@@H](O)[C@H](O[C@@H]3CO[C@@H](O[C@H]4CC[C@]5(C)C6=CCC78C(=O)O[C@@](C)([C@@H](CCC(C)C)OC(C)=O)[C@H]7[C@@H](OC(C)=O)C[C@@]8(C)[C@@H]6CC[C@H]5C4(C)C)[C@H](O[C@@H]4O[C@H](C)[C@@H](O[C@@H]5OC[C@@H](O)[C@H](O[C@@H]6O[C@H](CO)[C@@H](O)[C@H](OC)[C@H]6O)[C@H]5O)[C@H](O)[C@H]4O)[C@H]3O)O[C@H](CO)[C@H]2O)O[C@H](CO)[C@H]1O (some centres unmarked) [Cladoloside C1 (14), cladoloside C1]	µM	>	20
C=C(C)CC[C@@H](OC(C)=O)[C@]1(C)OC(=O)C23CC=C4[C@@H](CC[C@H]5C(C)(C)[C@@H](O[C@@H]6OC[C@@H](O[C@@H]7OC[C@@H](O)[C@H](O[C@@H]8O[C@H](CO)[C@@H](O)[C@H](O)[C@H]8O)[C@H]7O)[C@H](O)[C@H]6O[C@@H]6O[C@H](C)[C@@H](O[C@@H]7OC[C@@H](O)[C@H](O[C@@H]8O[C@H](CO)[C@@H](O)[C@H](OC)[C@H]8O)[C@H]7O)[C@H](O)[C@H]6O)CC[C@]45C)[C@]2(C)C[C@H](OC(C)=O)[C@@H]31 (some centres unmarked) [Cladoloside D (18), Cladoloside D]	µM	=	14.9
C=C(C)CC[C@@H](O)[C@]1(C)OC(=O)C23CC=C4[C@@H](CC[C@H]5C(C)(C)[C@@H](O[C@@H]6OC[C@@H](O[C@@H]7O[C@H](CO)[C@@H](O)[C@H](O[C@@H]8O[C@H](CO)[C@@H](O)[C@H](OC)[C@H]8O)[C@H]7O)[C@H](O)[C@H]6O[C@@H]6O[C@H](C)[C@@H](O[C@@H]7OC[C@@H](O)[C@H](O[C@@H]8O[C@H](COS(=O)(=O)[O-])[C@@H](O)[C@H](OC)[C@H]8O)[C@H]7O)[C@H](O)[C@H]6O)CC[C@]45C)[C@]2(C)C[C@H](OC(C)=O)[C@@H]31.[Na+] (some centres unmarked) [Cladoloside K2 (32), cladoloside K2]	µM	=	14.1
C=C(C)CCC[C@]1(C)OC(=O)C23CC=C4[C@@H](CC[C@H]5C(C)(C)[C@@H](O[C@@H]6OC[C@@H](O)[C@H](O)[C@H]6O[C@@H]6O[C@H](C)[C@@H](O[C@@H]7OC[C@@H](O)[C@H](O[C@@H]8O[C@H](CO)[C@@H](O)[C@H](OC)[C@H]8O)[C@H]7O)[C@H](O)[C@H]6O)CC[C@]45C)[C@]2(C)C[C@H](OC(C)=O)[C@@H]31 (some centres unmarked) [A3 (7), cladoloside A3]	µM	>	20
C=C(C)CCC[C@]1(C)OC(=O)C23CC=C4[C@@H](CC[C@H]5C(C)(C)[C@@H](O[C@@H]6OC[C@@H](O[C@@H]7O[C@H](CO)[C@@H](O)[C@H](O[C@@H]8O[C@H](COS(=O)(=O)[O-])[C@@H](O)[C@H](OC)[C@H]8O)[C@H]7O)[C@H](O)[C@H]6O[C@@H]6O[C@H](C)[C@@H](O[C@@H]7OC[C@@H](O)[C@H](O)[C@H]7O)[C@H](O)[C@H]6O)CC[C@]45C)[C@]2(C)CC(=O)[C@@H]31.[Na+] (some centres unmarked) [Cladoloside J1 (30), Cladoloside J1]	µM	>	20
C=C(C)CC[C@@H](OC(C)=O)[C@]1(C)OC(=O)C23CC=C4[C@@H](CC[C@H]5C(C)(C)[C@@H](O[C@@H]6OC[C@@H](O[C@@H]7O[C@H](CO)[C@@H](O)[C@H](O)[C@H]7O)[C@H](O)[C@H]6O[C@@H]6O[C@H](C)[C@@H](O[C@@H]7OC[C@@H](O)[C@H](O[C@@H]8O[C@H](CO)[C@@H](O)[C@H](OC)[C@H]8O)[C@H]7O)[C@H](O)[C@H]6O)CC[C@]45C)[C@]2(C)C[C@H](OC(C)=O)[C@@H]31 (some centres unmarked) [Cladoloside B2 (12), cladoloside B2]	µM	=	12.5

All values here come from paper PMC12299463.
